Entry source: the Human Domainome abundance scans (Beltran et al. 2025)

B1: Activity-dependent neuroprotector homeobox protein, residues 770 to 810; numbered along this chain, Q9H2P0 (parent)
chain: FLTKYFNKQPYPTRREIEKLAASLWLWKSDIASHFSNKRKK

- Variants of: B1
- procedure_text: abundance fitness (aPCA) (normalised: wild type 0, dead -1); higher = more abundant; growth selection in yeast, the domain comes from the species named
- measurement_parameters: Homo sapiens
attribute_measured: abundance fitness

In [3]: df
Out[3]:
    variant_descriptor  attribute_measured  recorded_value
 0                 F6C   abundance fitness          -0.223
 1                 T3Y   abundance fitness          -0.619
 2                W27D   abundance fitness           -0.22
 3                I31M   abundance fitness           0.056
 4                P12V   abundance fitness          -0.584
 5                I31K   abundance fitness          -0.276
 6                 F6G   abundance fitness          -0.442
 7                 K4L   abundance fitness              -1
 8                S23C   abundance fitness          -0.119
 9                 L2W   abundance fitness           0.044
10                W27C   abundance fitness          -0.188
11                K41Y   abundance fitness          -0.378
12                 K4A   abundance fitness          -0.735
13                D30L   abundance fitness          -0.376
14                S29R   abundance fitness          -0.088
15                E16V   abundance fitness          -0.168
16                Y11M   abundance fitness           0.058
17                A22F   abundance fitness          -0.594
18                A32T   abundance fitness          -0.086
19                A22I   abundance fitness          -0.368
20                W27P   abundance fitness          -0.398
21                F35P   abundance fitness          -0.231
